- Test system: Rattus norvegicus
- PROTOCOL DETAILS: Biodistribution in muscle of immature female rat after 5 hour administration of 3 micro Ci (111 kBq) in the absence of 60 microg estradiol
- Type: ADME, organism-based, Muscle tissue
- SETTINGS: in vivo
PARAMETER MEASURED: ID/g (%)

INSERT INTO measurements (given_smiles, study_system, parameter_measured, value_observed) VALUES
  ('C[C@]12CC[C@@H]3c4ccc(O)c(F)c4CC[C@H]3[C@@H]1CC[C@@]2(O)/C=C\I', 'Rattus norvegicus', 'ID/g', 0.38),
  ('CO[C@H]1C[C@@]2(C)[C@@H](CC[C@@]2(O)/C=C\I)[C@@H]2CCc3c(ccc(O)c3F)[C@H]21', 'Rattus norvegicus', 'ID/g', 0.4),
  ('C[C@@H]1Cc2cc(O)c(F)cc2[C@H]2CC[C@@]3(C)[C@@H](CC[C@@]3(O)/C=C/I)[C@H]12', 'Rattus norvegicus', 'ID/g', 0.21),
  ('C[C@]12CC[C@@H]3c4cc(F)c(O)cc4CC[C@H]3[C@@H]1CC[C@@]2(O)/C=C\I', 'Rattus norvegicus', 'ID/g', 0.14),
  ('C[C@@H]1Cc2cc(O)c(F)cc2[C@H]2CC[C@@]3(C)[C@@H](CC[C@@]3(O)/C=C\I)[C@H]12', 'Rattus norvegicus', 'ID/g', 0.29),
  ('C[C@]12CC[C@@H]3c4ccc(O)c(F)c4CC[C@H]3[C@@H]1CC[C@@]2(O)/C=C/I', 'Rattus norvegicus', 'ID/g', 0.14),
  ('CO[C@H]1C[C@@]2(C)[C@@H](CC[C@@]2(O)/C=C/I)[C@@H]2CCc3cc(O)c(F)cc3[C@H]21', 'Rattus norvegicus', 'ID/g', 0.45);

----------
- System: Rattus norvegicus
- PROTOCOL DETAILS: Biodistribution in uterus of immature female rat after 12 hour administration of 3 micro Ci (111 kBq) in the absence of 60 microg estradiol
- Type: ADME, organism-based
- SETTINGS: in vivo
Assign a class from recorded ID/g; defined classes: c1: < 1%; c2: ≥ 1% and < 3%; c3: ≥ 3%

INSERT INTO assay_data (given_smiles, assigned_class) VALUES
  ('CO[C@H]1C[C@@]2(C)[C@@H](CC[C@@]2(O)/C=C/I)[C@@H]2CCc3cc(O)c(F)cc3[C@H]21', 'c2'),
  ('C[C@@H]1Cc2c(ccc(O)c2F)[C@H]2CC[C@@]3(C)[C@@H](CC[C@@]3(O)/C=C\I)[C@H]12', 'c3'),
  ('C[C@@H]1Cc2cc(O)c(F)cc2[C@H]2CC[C@@]3(C)[C@@H](CC[C@@]3(O)/C=C/I)[C@H]12', 'c1'),
  ('C[C@]12CC[C@@H]3c4ccc(O)c(F)c4CC[C@H]3[C@@H]1CC[C@@]2(O)/C=C/I', 'c1'),
  ('C[C@]12CC[C@@H]3c4cc(F)c(O)cc4CC[C@H]3[C@@H]1CC[C@@]2(O)/C=C/I', 'c1'),
  ('C[C@@H]1Cc2cc(O)c(F)cc2[C@H]2CC[C@@]3(C)[C@@H](CC[C@@]3(O)/C=C\I)[C@H]12', 'c3'),
  ('CO[C@H]1C[C@@]2(C)[C@@H](CC[C@@]2(O)/C=C\I)[C@@H]2CCc3c(ccc(O)c3F)[C@H]21', 'c3'),
  ('C[C@]12CC[C@@H]3c4cc(F)c(O)cc4CC[C@H]3[C@@H]1CC[C@@]2(O)/C=C\I', 'c2'),
  ('C[C@]12CC[C@@H]3c4ccc(O)c(F)c4CC[C@H]3[C@@H]1CC[C@@]2(O)/C=C\I', 'c3');
